# TESTED ON: T1, Pseudomonas aeruginosa sliding clamp (Pseudomonas aeruginosa), Q9I7C4
# T1 chain: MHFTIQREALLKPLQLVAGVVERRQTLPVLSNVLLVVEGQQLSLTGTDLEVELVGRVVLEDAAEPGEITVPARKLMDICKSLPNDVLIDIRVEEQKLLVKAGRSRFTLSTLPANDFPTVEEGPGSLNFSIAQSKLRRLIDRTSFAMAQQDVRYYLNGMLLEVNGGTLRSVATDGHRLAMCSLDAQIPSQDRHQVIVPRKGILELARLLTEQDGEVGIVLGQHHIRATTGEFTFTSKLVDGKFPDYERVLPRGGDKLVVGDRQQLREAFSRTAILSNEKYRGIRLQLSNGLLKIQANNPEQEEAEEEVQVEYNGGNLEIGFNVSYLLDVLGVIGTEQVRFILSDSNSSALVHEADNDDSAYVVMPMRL
# EXPERIMENT: ITC, 25 C
Square brackets hold non-standard residues; d marks the D form. Cha = N[C@@H](CC1CCCCC1)C(=O)O
ENDPOINT LABEL: Kd (nM)
Provide only the numeric value, understood in nM.

Recorded result, Ac-Q[Cha]DLF-OH [Ac-Gln-Cha-Asp-Leu-Phe-OH (peptide 1)] , Kd: 600

Measured values drawn from patent US20230312646A1 for this set.
